The values you see were collected from patent US20150337013A1.

tested on: Enterococcus faecalis EFS.201 (ATCC 49452); format: cell-based; details: ATCC 49452
I'd be grateful if you could share measured Efs201 MIC for these entries.
Your answer should be a plain number; it is taken to be in µg/mL.

Query :: Consider the compound CCCCCCCCCCC(=O)N[C@@H](Cc1c[nH]c2ccccc12)C(=O)N[C@H](CC(N)=O)C(=O)N[C@@H](CC(=O)O)C(=O)N[C@@H]1C(=O)NCC(=O)N[C@@H](CCCN)C(=O)N[C@@H](CC(=O)O)C(=O)N[C@H](C)C(=O)N[C@@H](CC(=O)O)C(=O)NCC(=O)N[C@H](CO)C(=O)N[C@@H]([C@H](C)CC(=O)O)C(=O)N[C@@H](CC(=O)c2ccccc2N)C(=O)O[C@@H]1C and give its measured Efs201 MIC.
Result :: 2

Query :: Consider the compound CCCCCCCCC(=O)N[C@@H](Cc1c[nH]c2ccccc12)C(=O)N[C@H](CC(N)=O)C(=O)N[C@@H](CC(=O)O)C(=O)N[C@@H]1C(=O)NCC(=O)N[C@@H](CCCN)C(=O)N[C@@H](CC(=O)O)C(=O)N[C@H](C)C(=O)N[C@@H](CC(=O)O)C(=O)NCC(=O)N[C@H](CO)C(=O)N[C@@H]([C@H](C)CC(=O)O)C(=O)N[C@@H](CC(=O)c2ccccc2N)C(=O)O[C@@H]1C and give its measured Efs201 MIC.
Result :: 32

Query :: Consider the compound C[C@H](CC(=O)O)[C@@H]1NC(=O)[C@@H](CO)NC(=O)CNC(=O)[C@H](CC(=O)O)NC(=O)[C@@H](C)NC(=O)[C@H](CC(=O)O)NC(=O)[C@H](CCCN)NC(=O)CNC(=O)[C@@H](NC(=O)[C@H](CC(=O)O)NC(=O)[C@@H](CC(N)=O)NC(=O)[C@H](Cc2c[nH]c3ccccc23)NC(=O)CCCCC2CCCCC2)[C@@H](C)OC(=O)[C@H](CC(=O)c2ccccc2N)NC1=O and give its measured Efs201 MIC.
Result :: 2

Query :: Consider the compound CC(C)Sc1ccc(-c2csc(C(=O)N[C@@H](Cc3c[nH]c4ccccc34)C(=O)N[C@H](CC(N)=O)C(=O)N[C@@H](CC(=O)O)C(=O)N[C@@H]3C(=O)NCC(=O)N[C@@H](CCCN)C(=O)N[C@@H](CC(=O)O)C(=O)N[C@H](C)C(=O)N[C@@H](CC(=O)O)C(=O)NCC(=O)N[C@H](CO)C(=O)N[C@@H]([C@H](C)CC(=O)O)C(=O)N[C@@H](CC(=O)c4ccccc4N)C(=O)O[C@@H]3C)c2)cc1 and give its measured Efs201 MIC.
Result :: 2
